For each of the compounds below, state its INHIBITION.
# Test system: Plasmodium berghei
# measurement.description: Screen against P. berghei liver stage (PbLuc), transformed with Luciferase, at 2uM
# Format: functional, HepG2
# study.conditions: tested at 2 uM
About 2,700 (4%) of roughly 68,000 compounds showed an effect of 50% or more. The sample as a whole holds a higher share of strong results than the screen did.
One number for each entry, in %.

The cases that follow already have their INHIBITION on record.
>>> value("Cc1cc(CN(C)C(=O)CN2CC3(CCNCC3)OC2=O)n(C)n1")
24.12
>>> value("CN1CCCC(c2nc3c([nH]2)CC(C)(C)CNC3=O)C1 (stereo unspecified)")
-3.25
>>> value("CN(C)C(=O)c1csc(-c2ccoc2)n1")
38.83
>>> value("CC(Cn1ccnc1)NC(=O)NCCc1ccc2c(c1)OCCO2 (stereo unspecified)")
-14.3
>>> value("CC1(C)CNC(=O)c2nc(C3CCCN(C(=O)C4CC4)C3)[nH]c2C1 (stereo unspecified)")
73.68

From here, focus on the item given below.
State its INHIBITION on Plasmodium berghei: FC1(F)CCN(Cc2cccnc2)CC12CCN(c1ccccn1)C2 (stereo unspecified)
3.35

----------
# System: Plasmodium berghei
# measurement.description: Screen against P. berghei liver stage (PbLuc), transformed with Luciferase, at 2uM
# Assay type: functional, HepG2
# study.conditions: tested at 2 uM
The campaign covered roughly 68,000 compounds. About 2,700 (4%) showed an effect of 50% or more. Only a selection was taken, and strong results are over-represented in it overall.
endpoint.label: INHIBITION

>>> value("CNc1nc(C(=O)N2CCn3nc(C(=O)OC)cc3C2)cs1")
"-0.15%"

Give INHIBITION for each of the items listed below.
1. Cc1cccc(-c2nc(C)nn2CC(=O)NC2CCCC2)c1
2. Cc1ccc(NC(=O)c2ccc(=O)n(CC(=O)NC3CCCC3)n2)cc1
3. CC(C)N1CC(C(=O)NCc2ccnc(-n3cccn3)c2)CC1=O (configuration not stated)
4. Cn1ncc2c1CCCC2NCc1ccc(Br)s1 (configuration not stated)

1. 25.74%
2. 50.2%
3. -47.05%
4. 54.86%

Give INHIBITION for each of the items listed below.
1. CC(C(=O)NCc1ccnc(N2CCCCCC2)c1)n1cccn1 (configuration not stated)
2. CC(C(=O)NCc1ccc(N2CCN(C)CC2)nc1)n1cccn1 (configuration not stated)
3. CC(C(=O)NCc1ccnc(N2CCCC2)c1)n1cccn1 (configuration not stated)

1: 53.33%; 2: 23.16%; 3: 17.12%

----------
# Test system: Plasmodium berghei
# measurement.description: Screen against P. berghei liver stage (PbLuc), transformed with Luciferase, at 2uM
# Format: functional, HepG2
# study.conditions: tested at 2 uM
In all, about 68,000 compounds went through this assay and about 2,700 (4%) showed an effect of 50% or more. This excerpt belongs to a sample that is enriched for strong results.
endpoint.label: INHIBITION (%)
One number for each entry, in %.

>>> value("c1ccc(Cc2noc(CN3CCc4cncnc4C3)n2)cc1")
56.02
>>> value("COc1ccc2nnc(CCC(=O)Nc3nc4c(s3)CCC4)n2n1")
58.29
>>> value("Cc1noc(C2CCCN(C(=O)c3ccc(Br)o3)C2)n1 (stereo unspecified)")
3.9
>>> value("CC(=O)Nc1ccc(CN2CCCC(c3cc4ncccc4[nH]3)C2)cc1 (stereo unspecified)")
50.68
>>> value("O=C(NCCCNc1ccccn1)NCC1CCS(=O)(=O)C1 (stereo unspecified)")
41.93
>>> value("Cn1ccnc1CN1CCN(CC(O)c2ccc(F)c(F)c2)CC1 (stereo unspecified)")
56.67

Give INHIBITION for each of the items listed below.
1. Cc1cc(C(=O)N2C[C@@H]3C(CN(C)CCCn4cccn4)[C@@H]3C2)c(C)o1 (stereo partly specified)
2. Cc1cc(C(=O)N2C[C@@H]3C(CN(C)CCc4ccccn4)[C@@H]3C2)c(C)o1 (stereo partly specified)
3. CN(Cc1ccccc1CN1CCCC1)C(=O)c1c[nH]c(=O)[nH]1
4. CCOC(=O)N1CCN(C(=O)c2cc(-c3ccc(C)cc3)on2)CC1
5. Cc1ncccc1NC(=O)C1=NOC2(CCN(Cc3nccs3)C2)C1 (stereo unspecified)
6. Cc1oncc1C(=O)N1CC[C@H]2[C@H]1CCN2S(C)(=O)=O

-6.53
33.7
0.31
21.28
16.87
15.36

Give INHIBITION for each of the items listed below.
1. Cc1ccccc1C(=O)N1C[C@@H]2C(CN(C)CCc3ccccn3)[C@@H]2C1 (stereo partly specified)
2. CCOC(=O)c1coc(N2CCN(Cc3ccc(C)cc3)C(=O)C2)n1
3. Cc1ncc2c(n1)CN(Cc1nc(Cc3ccccc3)no1)CC2

56.21
33.9
-54.44

Give INHIBITION for each of the items listed below.
1. Cn1nc(COc2cncnc2)c2c1CCN(Cc1ccco1)C2
2. CC(=O)N1CC2(CCCN2Cc2ccc(Cl)cc2)Cc2ccccc21 (stereo unspecified)

1: 8.36; 2: 6.9
